System: K4 kissing-loop RNA reporter;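 also: bound reporter read as fluorescence of individual clusters on recovered sequencing chips by microscopy, with normalized cluster intensities fitted with a binding model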
Assay: apparent KD of K4 kissing-loop reporter; higher = weaker reporter binding
Conditions: Eterna round: R107; input ligand: theophylline 20 uM
Exercise: for every item that follows, state its recorded apparent KD of K4 kissing-loop reporter.
Answers are plain numbers, in nM.

[[record]]
sequence_content = "CGCAGUGAUGUUGCGAGUAGCUACAGGGAAGGAGCGCUUUAGUAAGCAGGUAGGUCGCCCACGCAGUGAUGUUGCGUCAUAGGGU [Exclusion Arginine A GF 19]"
meas_value = 109

[[record]]
sequence_content = "AGUGUGCAAAAGCACACUCAGUACAAGGACAAGGAUAUCUACUAAUAGAGAAGGUGUCCUUUCCUUAGUGAUGUUAAGGAACUGA [Omei KL FMN A SS D v3]"
meas_value = 657


Now turn to the next sequence.
query: Determine its reported apparent KD of K4 kissing-loop reporter: CGCAGUGAUGUUGCGAGUAGCUACAGGGAAGGAGCGUGCUAGAGCACAGGUAGGUCGCCCUCGGGCAGUGAUGUUGCCAAAGGUU [Exclusion ARginine A GF 16]
result: 80.6

---

Exercise: for every item that follows, state its recorded apparent KD of MS2 coat protein.
Tested on: MS2 coat protein
Assay: apparent KD of MS2 coat protein; designed switch direction (-1 OFF switch, 1 ON switch): -1; higher = weaker reporter binding
Conditions: Eterna round: R95; input ligand: microRNA oligo, concentration not stated
Give bare numbers, in nM.

[[record]]
sequence_content = "UUCCUGUCAGGAUAUGACUAGAUGCACGAAAGUGUUUUUAGUUAGAAGGGACAUGAGGAUCACCCAUGUAGUCC [Bring Us a Shrubbery-19] (puzzle: Exclusion 4)"
study_system = "MS2 coat protein"
meas_value = 21.9

[[record]]
sequence_content = "GCAGGAUAAGUGAGGAUAUACCUCUGGAUACAGAGGUAGAAGGCACAUGAGGAUCACCCAUGUCUAUAACCUGC [Fiskers BMX 4 - 79] (puzzle: Brourd's mod of Exclusion 4)"
study_system = "MS2 coat protein"
meas_value = 12.5


Now turn to the next sequence.
query: Determine its reported apparent KD of MS2 coat protein: AGAUGGCGAGGAUAUACAUGAGGAUCACCCAUGUGAAGAAUAAUAGUGAGGAAGAAAAGUAGAAGGCGCUGUCA [Mat - Exclusion 3 - Mod of Salish D33] (puzzle: Exclusion 3)
result: 37

---

Test system: MS2 coat protein
Experiment: apparent KD of MS2 coat protein; designed switch direction (-1 OFF switch, 1 ON switch): -1; higher = weaker reporter binding
Conditions: input ligand: FMN 200 uM
Exercise: for every item that follows, state its recorded apparent KD of MS2 coat protein.
Give bare numbers, in nM.

[[record]]
sequence_content = "CACCUGAAUACAGGAUAUCUUACAUGAGGAUCACCCAUGUAAUAAAUGAGAAUUUCGAAUGUAAUAGAGAAGGGUAGAUAAGGC [Ostracism 87 - Jieux - Exclusion NG 2] (Eterna round: R96, puzzle: Exclusion NG 2)"
study_system = "MS2 coat protein"
meas_value = 39.2

[[record]]
sequence_content = "AAAAUGUGAGGAUAUCCAAUAUAUGACAUGAGGAUCACCCAUGUUUCCACUCGUACCUCCGGAGAAGGCACUAAAA [Ex5 #42] (Eterna round: R97, puzzle: Exclusion 5)"
study_system = "MS2 coat protein"
meas_value = 21.9

[[record]]
sequence_content = "AGCUGAGCAGGAUAUACAUGAGGAUCACCCAUGUUGGUCAAGCGACGAUAGUCGCAAUGUAGAAGGGCUCAGCU [E3/8-D2] (Eterna round: R97, puzzle: Exclusion 3)"
study_system = "MS2 coat protein"
meas_value = 114


query: Determine its reported apparent KD of MS2 coat protein: AUAAAACAUGAGGAUCACCCAUGUCAGGAUAUACGACUCCAACCUAACAGCUUGGACCGUAGAAGGGACAAGGG [Exclusion 1 (MOD2.2 Esqu)] (Eterna round: R97, puzzle: Exclusion 1)
result: 91.6
